- Procedure summary: self-splicing fitness, log relative to wild type (ln ratio); higher = more splicing; Tetrahymena group I intron in knt gene, E. coli kanamycin selection, DiMSum; sequences stand for … in CUCUCU…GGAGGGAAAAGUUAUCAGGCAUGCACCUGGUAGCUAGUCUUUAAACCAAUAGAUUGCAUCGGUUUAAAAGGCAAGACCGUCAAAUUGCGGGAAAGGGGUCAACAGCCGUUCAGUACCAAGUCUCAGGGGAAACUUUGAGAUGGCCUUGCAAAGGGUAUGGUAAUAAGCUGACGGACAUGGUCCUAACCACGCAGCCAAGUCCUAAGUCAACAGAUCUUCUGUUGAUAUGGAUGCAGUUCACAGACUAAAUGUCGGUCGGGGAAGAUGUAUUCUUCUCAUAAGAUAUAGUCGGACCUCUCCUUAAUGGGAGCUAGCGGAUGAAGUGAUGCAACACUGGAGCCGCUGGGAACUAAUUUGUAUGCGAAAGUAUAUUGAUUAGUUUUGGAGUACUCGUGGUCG;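 further: selection with 25 µg/mL kanamycin versus none on LB agar overnight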
- Condition description: 37 °C
Recorded endpoint: self-splicing fitness (ln)

Read the entry `AGCUAGCAAUAUUACGGUCA` and write its reported self-splicing fitness (ln).
0.192

Read the entry `UUACAGCAAUAUUACGGUGA` and write its reported self-splicing fitness (ln).
-0.122

Read the entry `GUAAAGCAAUAUUACGGUUG` and write its reported self-splicing fitness (ln).
-1.41

Read the entry `UAGCAGCAAUAUUACGUACU` and write its reported self-splicing fitness (ln).
-0.434

Read the entry `CUUGAGCAAUAUUACGCUAC` and write its reported self-splicing fitness (ln).
-2.02

Read the entry `GCCAAGCAAUAUUACGGCGG` and write its reported self-splicing fitness (ln).
-1.84

Read the entry `AUCCAGCAAUAUUACGAUGG` and write its reported self-splicing fitness (ln).
-2.85

Read the entry `ACUGAGCAAUAUUACGCCGC` and write its reported self-splicing fitness (ln).
-1.23

Read the entry `UCUCAGCAAUAUUACGGAUA` and write its reported self-splicing fitness (ln).
0.0308

Read the entry `UGGUAGCAAUAUUACGCACA` and write its reported self-splicing fitness (ln).
0.436

Read the entry `UGAAAGCAAUAUUACGGGCC` and write its reported self-splicing fitness (ln).
-1.32

Read the entry `GGCGAGCAAUAUUACGUGUC` and write its reported self-splicing fitness (ln).
-1.46

Read the entry `CUCCAGCAAUAUUACGCUUA` and write its reported self-splicing fitness (ln).
-2.49

Read the entry `AUCUAGCAAUAUUACGCGCU` and write its reported self-splicing fitness (ln).
-0.909

Read the entry `ACCCAGCAAUAUUACGUGCC` and write its reported self-splicing fitness (ln).
-0.963

Read the entry `UGCUAGCAAUAUUACGAGAC` and write its reported self-splicing fitness (ln).
-2.11

Read the entry `CUUGAGCAAUAUUACGUGUC` and write its reported self-splicing fitness (ln).
-2.28

Read the entry `UCGAAGCAAUAUUACGUCCA` and write its reported self-splicing fitness (ln).
-0.411

Read the entry `UCCAAGCAAUAUUACGAGUC` and write its reported self-splicing fitness (ln).
-2.97

Read the entry `AACGAGCAAUAUUACGAGGG` and write its reported self-splicing fitness (ln).
-2.35

Read the entry `CAAUAGCAAUAUUACGGCAG` and write its reported self-splicing fitness (ln).
0.191

Read the entry `UUGUAGCAAUAUUACGAACG` and write its reported self-splicing fitness (ln).
-0.376

Read the entry `CCCCAGCAAUAUUACGCCCA` and write its reported self-splicing fitness (ln).
-1.37

Read the entry `GACCAGCAAUAUUACGUCUC` and write its reported self-splicing fitness (ln).
-0.159

Read the entry `UAGUAGCAAUAUUACGCUCA` and write its reported self-splicing fitness (ln).
0.69

Read the entry `AUUCAGCAAUAUUACGUAGU` and write its reported self-splicing fitness (ln).
-0.0257

Read the entry `CCGCAGCAAUAUUACGAGCU` and write its reported self-splicing fitness (ln).
-3.37

Read the entry `CCACAGCAAUAUUACGCAUC` and write its reported self-splicing fitness (ln).
-2.31

Read the entry `GGAUAGCAAUAUUACGUUAA` and write its reported self-splicing fitness (ln).
-1.9

Read the entry `CUUCAGCAAUAUUACGAGUU` and write its reported self-splicing fitness (ln).
-2.03

Read the entry `GCAGAGCAAUAUUACGCAAG` and write its reported self-splicing fitness (ln).
-2.28

Read the entry `UUUCAGCAAUAUUACGCGAA` and write its reported self-splicing fitness (ln).
-1.21

Read the entry `GAUCAGCAAUAUUACGUAGU` and write its reported self-splicing fitness (ln).
-0.885

Read the entry `UGGCAGCAAUAUUACGUUCG` and write its reported self-splicing fitness (ln).
0.283

Read the entry `GUAAAGCAAUAUUACGCAUU` and write its reported self-splicing fitness (ln).
-0.597

Read the entry `CCGCAGCAAUAUUACGGCAC` and write its reported self-splicing fitness (ln).
-2.91

Read the entry `GUAGAGCAAUAUUACGUUGU` and write its reported self-splicing fitness (ln).
-0.699

Read the entry `CCUGAGCAAUAUUACGGCGA` and write its reported self-splicing fitness (ln).
-2.62

Read the entry `ACAGAGCAAUAUUACGGGAU` and write its reported self-splicing fitness (ln).
-3.03

Read the entry `UACUAGCAAUAUUACGCUUG` and write its reported self-splicing fitness (ln).
-1.64

Read the entry `UAUUAGCAAUAUUACGAAGA` and write its reported self-splicing fitness (ln).
-1.75

Read the entry `UGGAAGCAAUAUUACGUGUA` and write its reported self-splicing fitness (ln).
-0.482

Read the entry `UCUAAGCAAUAUUACGCAUU` and write its reported self-splicing fitness (ln).
-2.83

Read the entry `UCGGAGCAAUAUUACGUGAC` and write its reported self-splicing fitness (ln).
-2.14

Read the entry `CCAAAGCAAUAUUACGCAUA` and write its reported self-splicing fitness (ln).
-2.38

Read the entry `CGGAAGCAAUAUUACGUGUA` and write its reported self-splicing fitness (ln).
-3.6

Read the entry `CAUGAGCAAUAUUACGGUCG` and write its reported self-splicing fitness (ln).
0.0674

Read the entry `AUAAAGCAAUAUUACGCAUA` and write its reported self-splicing fitness (ln).
-0.0324

Read the entry `ACUUAGCAAUAUUACGCGUC` and write its reported self-splicing fitness (ln).
-1.83

Read the entry `GGAAAGCAAUAUUACGUCCG` and write its reported self-splicing fitness (ln).
-0.324

Read the entry `CGGCAGCAAUAUUACGGCAC` and write its reported self-splicing fitness (ln).
-2.21

Read the entry `UUGCAGCAAUAUUACGUCCG` and write its reported self-splicing fitness (ln).
0.0449

Read the entry `CCGAAGCAAUAUUACGAAAC` and write its reported self-splicing fitness (ln).
-2.46

Read the entry `GAGAAGCAAUAUUACGCACU` and write its reported self-splicing fitness (ln).
-0.249

Read the entry `GUUAAGCAAUAUUACGCAAA` and write its reported self-splicing fitness (ln).
-2.21

Read the entry `UCAGAGCAAUAUUACGGAAU` and write its reported self-splicing fitness (ln).
-2.22

Read the entry `AGGUAGCAAUAUUACGGAGU` and write its reported self-splicing fitness (ln).
-1.72

Provenance of the data: the supplement of paper PMC7877785
